Answer each item with its documented TGI.
Tested on: U251 CNS
Experiment: NCI tumour cell line growth inhibition, 48 h

COMPOUND: COc1ccc([C@H](CC(=O)O)N2CCN(CCCc3ccc4c(n3)NCCC4)C2=O)cn1
TGI: > 100 µM
//
COMPOUND: CC(C)C1CO[C@]2(C)CCC(=O)N12 (stereo partly specified)
TGI: > 100 µM
//
COMPOUND: CNC(=O)NCC1OC(n2cnc3c(NC(=O)Nc4ccccc4)ncnc32)C(O[Si](C)(C)C(C)(C)C)C1O[Si](C)(C)C(C)(C)C (stereo unspecified)
TGI: 10.8 µM

# return TGI for each item in the list
1. CCCCCCCCCCCC1=NC(C)(C)CN1C(C)(C)CO
2. O=C(NNC(=S)Nc1ccccc1)c1nsc2ccccc12
3. C/C(CC(=O)Nc1cccc(Cl)c1C)=N\NC(N)=S
4. COc1cc(/C=C/c2ccc(C)cc2)cc(OC)c1OC
5. COc1cc2c(cc1OC)C(C(=O)O)C(c1ccccc1)N(C)C2=O (stereo unspecified)

1. 4.77 µM
2. > 100 µM
3. > 100 µM
4. 23.9 µM
5. > 100 µM

Batch lookup, TGI per entry.
1. CCCC[C@@H](C)/C=C1\CN2CCC[C@H]2[C@@](C)(OCc2ccccc2)[C@@H]1O
2. O=C(/C=C(\O)C(=O)O)/C=C(\O)c1ccccc1
3. Cc1c(C(=O)C/C(=N/NC(=O)c2ccccc2)C(=O)Nc2ccc(Cl)cc2)[n+](=O)c2ccccc2n1[O-]
4. Cc1ccc(S(=O)(=O)N2C[C@@H]3CC[C@]4(CO[Si](C)(C)C(C)(C)C)N[C@@H](c5ccccc5)[C@H]2[C@H]34)cc1
5. CC1C(NNC(N)=O)Oc2cc3c(cc2C1c1ccccc1O)OCO3 (stereo unspecified)
6. CCC(=O)N1C/C(=C/c2ccc(Cl)cc2)C(=O)/C(=C/c2ccc(Cl)cc2)C1
7. COc1cc(-c2nc3ccccc3s2)ccc1OCCCCOc1cc2c(cc1OC)C(=O)N1CCC[C@H]1C=N2
8. Fc1cccc(F)c1C1SCc2nc3cc(Cl)c(Cl)cc3n21 (stereo unspecified)

> 50 µM
> 100 µM
> 100 µM
> 100 µM
> 100 µM
0.897 µM
1.63 µM
> 100 µM

Give TGI for each listed item.
1. Cc1ccc(/C=C/c2c(C(=O)/C=C/c3ccccc3)c(C)nc3ccccc23)cc1
2. Nc1ccn(C2CC(F)C(CO)O2)c(=O)n1 (stereo unspecified)
3. CC1=CC2C(C(O)CC3(C)C2CC(C)C32OCOC23COCO3)C2(C)C/C(=C/O)C(=O)C=C12 (stereo unspecified)
4. NC(=N\N=C/c1ccc(O)cc1)/C(N)=N\N=C/c1ccc(O)cc1
5. O=C1c2cc(Cc3ccccc3)c(=O)c(Cc3ccccc3)cc2C(=O)c2cc(Cc3ccccc3)c(=O)c(Cc3ccccc3)cc21

2.87 µM
> 100 µM
3.27 µM
> 100 µM
> 100 µM

Hey, can you go through the list below and give me TGI for every item?
1. NC(Cc1ccc(OCc2ccccc2)cc1)C(=O)NC(Cc1ccccc1)C(=O)Oc1c(Cl)c(Cl)c(Cl)c(Cl)c1Cl (stereo unspecified)
2. CC(C)(C)OC(=O)N/C(C=O)=C\C1CCCCC1
3. O[C@@H]1C=C[C@]23CCN(Cc4cc5c(cc42)OCO5)[C@@H]3C1

1. 31.2 µM
2. 40.3 µM
3. > 100 µM

// batch mode: one TGI value per listed entry
1. C1=NCCNCCNCCN=Cc2ccc(cc2)OCc2cccc(n2)COc2ccc1cc2
2. N#Cc1nc2cc(Cl)ccc2nc1N1CCN(c2ccc([N+](=O)[O-])cc2)CC1

> 100 µM
> 100 µM

Where do these numbers come from? They come from PubChem BioAssay (NCI).
